Target system: T. thermophilus complex I (quinone site, Q-site) (Thermus thermophilus, UniProt Q56218+Q56220+Q60019)
Construct: gene nqo4; native intact complex purified from T. thermophilus HB8 membranes in TDM; 16 subunits, 550 kDa; for crystals recombinant His-tagged Nqo16 (E. coli) was added; activity preparation has sub-stoichiometric Nqo16; with NADH-quinone oxidoreductase subunit 1; NADH-quinone oxidoreductase subunit 2; NADH-quinone oxidoreductase subunit 3; NADH-quinone oxidoreductase subunit 5; NADH-quinone oxidoreductase subunit 7; NADH-quinone oxidoreductase subunit 9; NADH-quinone oxidoreductase subunit 10; NADH-quinone oxidoreductase subunit 11; NADH-quinone oxidoreductase subunit 12; NADH-quinone oxidoreductase subunit 13; NADH-quinone oxidoreductase subunit 14; NADH-quinone oxidoreductase subunit 15; NADH-quinone oxidoreductase subunit 16
Assay info: NADH:DQ oxidoreductase activity, absorbance at […] nm
Assay type: biochemical
Assay conditions: read-out: IC50
Reported IC50 values for a set of molecules

# Molecule, Quantity unit, IC50
measured = [
    ("COc1oc([C@H]2C/C(=C/C(C)=C/c3ccc([N+](=O)[O-])cc3)CO2)c(C)c(=O)c1C [AUT, aureothin]", "nM", 10.3),
    ("C=C(C)[C@H]1Cc2c(ccc3c2O[C@@H]2COc4cc(OC)c(OC)cc4[C@@H]2C3=O)O1 [rotenone]", "nM", 190),
    ("CC(C)(C)c1ccc(CSc2cnn(C(C)(C)C)c(=O)c2Cl)cc1 [PYR, pyridaben]", "nM", 15.6),
]

###

Target system: T. thermophilus complex I (quinone site, Q-site) (Thermus thermophilus, UniProt Q56218+Q56220+Q60019)
Construct: gene nqo4; native intact complex purified from T. thermophilus HB8 membranes in TDM; 16 subunits, 550 kDa; for crystals recombinant His-tagged Nqo16 (E. coli) was added; activity preparation has sub-stoichiometric Nqo16; with NADH-quinone oxidoreductase subunit 1; NADH-quinone oxidoreductase subunit 2; NADH-quinone oxidoreductase subunit 3; NADH-quinone oxidoreductase subunit 5; NADH-quinone oxidoreductase subunit 7; NADH-quinone oxidoreductase subunit 9; NADH-quinone oxidoreductase subunit 10; NADH-quinone oxidoreductase subunit 11; NADH-quinone oxidoreductase subunit 12; NADH-quinone oxidoreductase subunit 13; NADH-quinone oxidoreductase subunit 14; NADH-quinone oxidoreductase subunit 15; NADH-quinone oxidoreductase subunit 16
Assay info: biochemical
Set-up: NADH:decylubiquinone oxidoreductase activity of purified complex I, NADH absorbance at 340 nm, 50 °C
Assay conditions: read-out: IC50 (nM in cell)
Reported IC50 values for a set of molecules
Experimental readout: IC50 (nM)

# Molecule, Experimental readout, Quantity unit, Obs value
measured = [
    ("CCCCCCCCCC[C@H](O)[C@H]1CC[C@@H]([C@@H]2CC[C@H]([C@H](O)CCCCCCCCCC[C@@H](O)CC3=C[C@H](C)OC3=O)O2)O1 [Rolliniastatin-1]", "IC50", "nM", 930),
    ("Cc1nn(C)c(Oc2ccccc2)c1/C=N/OCc1ccc(C(=O)OC(C)(C)C)cc1 [Fenpyroximate]", "IC50", "nM", 630),
]

###

Target system: T. thermophilus complex I (quinone site, Q-site) (Thermus thermophilus, UniProt Q56218+Q56220+Q60019)
Construct: gene nqo4; native intact complex purified from T. thermophilus HB8 membranes in TDM; 16 subunits, 550 kDa; for crystals recombinant His-tagged Nqo16 (E. coli) was added; activity preparation has sub-stoichiometric Nqo16; with NADH-quinone oxidoreductase subunit 1; NADH-quinone oxidoreductase subunit 2; NADH-quinone oxidoreductase subunit 3; NADH-quinone oxidoreductase subunit 5; NADH-quinone oxidoreductase subunit 7; NADH-quinone oxidoreductase subunit 9; NADH-quinone oxidoreductase subunit 10; NADH-quinone oxidoreductase subunit 11; NADH-quinone oxidoreductase subunit 12; NADH-quinone oxidoreductase subunit 13; NADH-quinone oxidoreductase subunit 14; NADH-quinone oxidoreductase subunit 15; NADH-quinone oxidoreductase subunit 16
Assay info: NADH:DQ oxidoreductase activity, absorbance at […] nm
Format: biochemical
pIC50: −log10 of the molar value.
Experimental readout: pIC50

# Chemical structure, Experimental readout, Obs value
measured = [
    ("C/C=C(\\C)[C@H](O)[C@H](C)/C=C(C)/C=C/C/C(C)=C/Cc1nc(OC)c(OC)c(O)c1C", "pIC50", 7.51),
]
